Recorded measurements of pIC50, one per entry
Target: Human Inducible Nitric Oxide Synthase (Homo sapiens)
pIC50: −log10 of the molar value.

Some compounds with known pIC50 results, for comparison:
compound="COC(=O)C(=O)Nc1cc(C)ccn1 [Example 21]" result="> 6.00"
compound="Cc1ccnc(NC(=S)NC2CC(C)CC(C)(C)C2)c1 (stereo not drawn) [Example 13]" result="> 4.30"
compound="Cc1ccc(NC(=O)Nc2cc(C)ccn2)cc1 [Example 1]" result="> 4.30"
compound="C=CCNC(=S)Nc1cc(C)cc(C)n1 [Example 5]" result="> 4.30"
compound="COC(=O)CC(=O)Nc1cc(C)ccn1 [Example 22]" result="< 4.30"

Need pIC50, item Cc1ccnc(NC(=O)NC(=O)c2ccccc2)c1 [Example 14, N-(2-(4-Methylpyridyl))-N'-benzoyl-urea] > 5.00

Need pIC50, item Cc1ccnc(NC(=S)NCc2ccccc2)c1 [Example 12] > 4.30

Need pIC50, item Cc1cc(C)nc(NC(N)=S)c1 [Example 3, N-(2-(4,6-dimethylpyridyl))-thiourea] > 4.30

Need pIC50, item Cc1ccnc(NC(=S)Nc2cccc(F)c2)c1 [Example 11] > 4.30
